tested on: HCT-116 colon; assay: NCI tumour cell line growth inhibition, 48 h; in the data active means GI50 below about 0.43 µM; inactive means the rest
Valid outcomes are listed here; reply with one: yes (1) (active), no (0) (inactive)

What was the test verdict on Clc1ccc([I+]c2ccc(Cl)cc2Cl)c(Cl)c1 ?
no (0)

Further cases:
What outcome does the record of this test show for O=C1C(Nc2cccc(O)c2)=C(Sc2ccccc2)C(=O)N1Cc1ccccc1 ?
no (0)

Fill in: this test's call for CC1CCC2C(CN(CC3=C(C(F)(F)F)OC4OC5(C)CCC6C(C)CCC3C46OO5)CC3=C(C(F)(F)F)OC4OC5(C)CCC6C(C)CCC3C46OO5)=C(C(F)(F)F)OC3OC4(C)CCC1C32OO4 (stereo not given) is ___
no (0)

Just curious, what result did CC(=O)OCC(CC[CH2][Sn]([Cl])([Cl])[c]1ccccc1)OC(C)=O (stereo not given) get here?
no (0)
